System: SF-539 CNS
Assay: NCI tumour cell line growth inhibition, 48 h

# MOLECULE, GI50
data = [
    ("COc1cc2c3c(n(CCCNCC(OC)OC)c(=O)c2cc1OC)-c1cc2c(cc1C3=O)OCO2", "2420 nM"),
    ("CCN(CCNc1ccc(C)c2sc3cc(Cl)ccc3c(=O)c12)CC(C)O (stereo not drawn)", "1590 nM"),
    ("CN1CCN(c2nc(NCCCCNc3ccnc4cc(Cl)ccc34)c3ccccc3n2)CC1", "1620 nM"),
    ("N=c1c2c(-c3ccccc3)c(-c3ccccc3)n(Cc3ccccc3)c2ncn1CCCO", "1240 nM"),
    ("Cn1ccc2c(c1=O)C(=O)c1nccc3c1c-2nc1ccccc13", "1830 nM"),
    ("C=CCNCCCN1C(=O)c2ccc3c4c(ccc(c24)C1=O)C(=O)N(CCCNCC=C)C3=O", "584 nM"),
    ("Cn1c(=O)c(Oc2ccc(F)cc2F)cc2cnc(NC(CO)CO)nc21", "> 25000 nM"),
    ("CS(=O)(=O)c1ccc(-c2cnc(N)c(C(=O)Nc3ccccc3)n2)cc1", "6810 nM"),
]
